Where do the numbers come from? From ChEMBL document CHEMBL4513216.

cytotoxicity at 10 µM values, listed per item
Assay Summary: Toxicity liver stage against HepG2, at 10uM
Format: cell-based
Set-up: test concentration 10 uM, cell line HepG2-A16-CD81EGFP
Experimental Parameters: human, HepG2-A16-CD81EGFP cells; read-out: INHIBITION
Give the quantity in %, number only.

Example cases with answers are listed next.
1) COCCN(C)C[C@@H]1CN(C(=O)NC2CCCCC2)C[C@@H]1CO	3.41
2) CC(C)OC(=O)N1C[C@@H]2CC[C@H]1CN(C(=O)c1ccccn1)C2	0.502
3) CC(C)NC(=O)[C@@H]1CCO[C@@H]2CCN(c3ncccn3)C[C@@H]21	7.92
4) Cc1occc1C(=O)N1CCC[C@]2(C[C@@H](OCc3ccncc3)CO2)C1	-6.25
5) Cc1nc2n(n1)CC(NCCC(=O)Nc1cc(C)on1)CC2 (stereo unspecified)	-10.5
6) N#CC1COCCN1C(=O)c1ccc2[nH]ccc2c1 (stereo unspecified)	14.4
7) N#Cc1cnc(N2Cc3cnn(Cc4ccc(F)cc4)c3C2)nc1N	4.84
8) O=C1C(NCc2nnc3n2CCCC3)CCN1c1ccccc1F (stereo unspecified)	-4.92

Input line: Look up cytotoxicity at 10 µM: Cc1ccc2c(c1)OC(C)CN2C(=O)Cc1ccc(C)nc1 (stereo unspecified)
Output line: -44.2

Input line: Look up cytotoxicity at 10 µM: COc1ccccc1CN(C)C(=O)c1cc(CN2CCC(O)CC2)on1
Output line: -26.7

Input line: Look up cytotoxicity at 10 µM: O=C(c1csc(-c2ncccn2)n1)N1CCN2CCCCC2C1 (stereo unspecified)
Output line: 4.55

###

Assay Summary: Toxicity liver stage against HepG2, at 10uM
Assay type: cell-based
Set-up: test concentration 10 uM, cell line HepG2-A16-CD81EGFP
Experimental Parameters: human, HepG2-A16-CD81EGFP cells; read-out: INHIBITION
Test Readout: cytotoxicity at 10 µM (%)
Give the quantity in %, number only.

Example cases with answers are listed next.
1) CCn1cc(CN2CCCC(COc3ccc(F)cc3)C2)cn1 (stereo unspecified)	-59.6
2) Cc1[nH]ncc1C(=O)N1CCN(CC(O)C(C)(C)C)CC1 (stereo unspecified)	-0.00964
3) O=C1[C@@H]2CCN(CC3CC3)C[C@@H]2OCCN1c1ccsc1	10.5
4) CN(C)C(=O)[C@@]12CCO[C@@H]1CCN(Cc1ccc3c(c1)OCO3)C2	0.863
5) CCc1nnsc1C(=O)NCc1nnc2n1CCC2	0.371

Now look at this one.
Input line: Look up cytotoxicity at 10 µM: Cc1cc(C(=O)NC2(C#N)CCCC2)c(C)n1-c1cccnc1
Output line: -3.15

###

cytotoxicity at 10 µM values, listed per item
Assay Summary: Toxicity liver stage against HepG2, at 10uM
Format: cell-based
Set-up: test concentration 10 uM, cell line HepG2-A16-CD81EGFP
Experimental Parameters: human, HepG2-A16-CD81EGFP cells; read-out: INHIBITION
Give the quantity in %, number only.

Example cases with answers are listed next.
1) Cc1ncc(CN2CCc3nc4cc(C(C)(C)C)nn4c(O)c3C2)n1C	8.62
2) Cc1nc(C)n(CC2CCCN2Cc2ccc(F)cc2C#N)n1 (configuration not stated)	-2.59
3) Cc1ccc(F)c(NS(=O)(=O)c2cc3c(c(C(=O)O)c2)OCCO3)c1	-5.32
4) O=C(O)CCCC(=O)N1CCC(c2noc3cc(F)ccc23)CC1	-4.66
5) Cc1cc(F)c(S(=O)(=O)Nc2ccn(CCC#N)n2)cc1F	17.3
6) Cc1n[nH]c(C)c1CCC(=O)NCC1CCOc2ccccc2C1 (configuration not stated)	-45.6

Input line: Look up cytotoxicity at 10 µM: CC(C)c1nc2n(n1)CC(NCc1cc3ccccc3o1)CC2 (configuration not stated)
Output line: -3.61

Input line: Look up cytotoxicity at 10 µM: N#Cc1ccc(CN2CCCC(Cn3cncn3)C2)c(F)c1 (configuration not stated)
Output line: 0.762

Input line: Look up cytotoxicity at 10 µM: Cc1cnc(C(=O)NCC(c2ccc(C)o2)N2CCOCC2)cn1 (configuration not stated)
Output line: -7.2

Input line: Look up cytotoxicity at 10 µM: CCc1cc(CN(C)C(=O)CN2CC(c3ccccc3)CC2=O)on1 (configuration not stated)
Output line: -4.81

Input line: Look up cytotoxicity at 10 µM: COc1ccc(CN2C[C@@H](CN(C)C)[C@@H](CO)C2)cc1OC
Output line: -1.19

Input line: Look up cytotoxicity at 10 µM: NC(=O)[C@@H]1Cc2ccccc2CN1S(=O)(=O)N1CCCCCC1
Output line: 15.6

Input line: Look up cytotoxicity at 10 µM: O=C(NC[C@H]1Cn2c(-c3ccccc3)cnc2CO1)C1CCOCC1
Output line: -0.869

Input line: Look up cytotoxicity at 10 µM: O=C(c1ccc[nH]1)N1CCc2nnc(Cn3cccc3)n2CC1
Output line: 3.46

Input line: Look up cytotoxicity at 10 µM: Cc1nc(C2(O)CCCNCC2)sc1CCOc1ccc(F)c(F)c1 (configuration not stated)
Output line: -21.4

Input line: Look up cytotoxicity at 10 µM: CCS(=O)(=O)N1CCCC(Cc2cnccn2)C1 (configuration not stated)
Output line: -10.3

Input line: Look up cytotoxicity at 10 µM: CCNC(=O)COc1ccc(C(=O)NC(C)CCc2ccco2)cc1 (configuration not stated)
Output line: 12.2

Input line: Look up cytotoxicity at 10 µM: CC(=O)NCCNC(=O)CCn1c(C)cc2ccccc21
Output line: 6.26

Input line: Look up cytotoxicity at 10 µM: COc1ccccc1OCc1cc(C(=O)N2CCN(C(C)=O)CC2)n[nH]1
Output line: -2.59

Input line: Look up cytotoxicity at 10 µM: CC1(C)OC(=O)N(CCCOc2ccc(F)cc2)C1=O
Output line: 0.17

Input line: Look up cytotoxicity at 10 µM: Cn1nc(CC(C)(C)C)cc1NC(=O)c1ccc(CNC(N)=O)cc1
Output line: -1.78

Input line: Look up cytotoxicity at 10 µM: COCCN1CCc2c(cnc(-c3ccoc3)c2C(=O)O)C1
Output line: 0.908

Input line: Look up cytotoxicity at 10 µM: CCCn1cnnc1CN(C)C(=O)CCC(=O)Nc1cc(C)ccc1F
Output line: 16.1

Input line: Look up cytotoxicity at 10 µM: CN1CCC(N(CCc2ccccc2)C(=O)c2cc[nH]c2)CC1
Output line: -1.14
